# Test system: CTV-1 (T-Lymphoblastic Leukemia)
# assay notes: Bliss excess, mean over the matrix (fraction); higher = more synergy
So I've got a bunch of molecules here, and I need their Bliss excess values.

Below, each entry is followed by its recorded Bliss excess result.
molecule	assayed system	Bliss excess
CN(C)CCCOc1ccc(-c2ccc3ncc4c(c3c2)n(C2CCOCC2)c(=O)n4C)cn1 [AZD0156] + C[C@@H]1COCCN1C2=NC(=NC(=C2)C3(CC3)[S@](=N)(=O)C)C4=C5C=CNC5=NC=C4 [AZD6738] (first compound max 1 µM, 7x7, partner max 10 µM)	CTV-1 (T-Lymphoblastic Leukemia)	-0.0115
CC1(C)CCC(CN2CCN(c3ccc(C(=O)NS(=O)(=O)c4ccc(NCC5CCOCC5)c([N+](=O)[O-])c4)c(Oc4cnc5[nH]ccc5c4)c3)CC2)=C(c2ccc(Cl)cc2)C1 [Venetoclax] + C[C@@H](Nc1cc(F)cc(F)c1)c1cc(C(=O)N(C)C)cc2c(=O)cc(N3CCOCC3)oc12 [AZD8186] (first compound max 1 µM, 7x7, partner max 3 µM)	CTV-1 (T-Lymphoblastic Leukemia)	0.0057
CN(C)CCCOc1ccc(-c2ccc3ncc4c(c3c2)n(C2CCOCC2)c(=O)n4C)cn1 [AZD0156] + C=CCn1c(=O)c2cnc(Nc3ccc(N4CCN(C)CC4)cc3)nc2n1-c1cccc(C(C)(C)O)n1 [AZD1775] (first compound max 1 µM, partner max 1 µM)	CTV-1 (T-Lymphoblastic Leukemia)	-0.0169

Consider the additional molecule presented here.
input: Report Bliss excess, nothing else, for this molecule: Cc1cc2ncnn2cc1Nc1ncc2c(n1)n(C1CCOCC1)c(=O)n2C [AZD7648] + CN(C)CCCOc1ccc(-c2ccc3ncc4c(c3c2)n(C2CCOCC2)c(=O)n4C)cn1 [AZD0156] (first compound max 10 µM, 7x7, partner max 1 µM)
output: 0.0449

====

So I've got a bunch of compounds here, and I need their Bliss excess values.
# Tested on: KARPAS-620 (Plasma Cell Myeloma)
# assay notes: Bliss excess, mean over the matrix (fraction); higher = more synergy

compound	assayed system	Bliss excess
CN(CCO)CC[C@H](CSc1ccccc1)Nc1ccc(S(=O)(=O)NC(=O)c2ccc(N3CCC([C@@H](O)c4ccccc4-c4ccc(Cl)cc4)CC3)cc2)cc1S(=O)(=O)C(F)(F)F [AZD4320] + Nc1ccn([C@@H]2O[C@H](CO)[C@@H](O)C2(F)F)c(=O)n1 [Gemcitabine] (first compound max 1 µM, 7x7, partner max 0.3 µM)	KARPAS-620 (Plasma Cell Myeloma)	-0.0168
Cc1c2c(nn1C)CSCc1cc(n(C)n1)CSc1cc(c3ccccc3c1)OCCCc1c(C(=O)O)n(C)c3c-2c(Cl)ccc13 [AZD5991] + Cn1cnc2c(F)c(Nc3ccc(Br)cc3Cl)c(C(=O)NOCCO)cc21 [Selumetinib] (first compound max 1 µM, 7x7, partner max 3 µM)	KARPAS-620 (Plasma Cell Myeloma)	0.0919
COc1nnc2ccc(N3CCC(c4ccc(OCCN5CCN(C)C(=O)[C@H]5C)cc4)CC3)nn12 [AZD5153] + Cn1cnc2c(F)c(Nc3ccc(Br)cc3Cl)c(C(=O)NOCCO)cc21 [Selumetinib] (first compound max 1 µM, 7x7, partner max 10 µM)	KARPAS-620 (Plasma Cell Myeloma)	0.112

input: Report Bliss excess, nothing else, for this compound: Cc1cc2ncnn2cc1Nc1ncc2c(n1)n(C1CCOCC1)c(=O)n2C [AZD7648] + C[C@@H]1COCCN1C2=NC(=NC(=C2)C3(CC3)[S@](=N)(=O)C)C4=C5C=CNC5=NC=C4 [AZD6738] (first compound max 10 µM, 7x7, partner max 10 µM)
output: -0.0283

====

# Test system: JiyoyeP-2003 (Burkitt's Lymphoma)
# assay notes: combination Emax (second highest fraction inhibited in the dose matrix, 72 h); higher = more inhibition; extreme values may be limits of the assay
So I've got a bunch of molecules here, and I need their combination Emax values.
Answers are plain numbers.

Below, each entry is followed by its recorded combination Emax result.
molecule	assayed system	readout number
CC1(C)CCC(CN2CCN(c3ccc(C(=O)NS(=O)(=O)c4ccc(NCC5CCOCC5)c([N+](=O)[O-])c4)c(Oc4cnc5[nH]ccc5c4)c3)CC2)=C(c2ccc(Cl)cc2)C1 [Venetoclax] + C[C@@H]1COCCN1C2=NC(=NC(=C2)C3(CC3)[S@](=N)(=O)C)C4=C5C=CNC5=NC=C4 [AZD6738] (first compound max 1 µM, 7x7, partner max 10 µM)	JiyoyeP-2003 (Burkitt's Lymphoma)	0.954
NC1(C(=O)N[C@@H](CCO)c2ccc(Cl)cc2)CCN(c2ncnc3[nH]ccc23)CC1 [Capivasertib] + COc1nnc2ccc(N3CCC(c4ccc(OCCN5CCN(C)C(=O)[C@H]5C)cc4)CC3)nn12 [AZD5153] (first compound max 10 µM, 7x7, partner max 1 µM)	JiyoyeP-2003 (Burkitt's Lymphoma)	0.912

Consider the additional molecule presented here.
input: Report combination Emax, nothing else, for this molecule: CC1(C)CCC(CN2CCN(c3ccc(C(=O)NS(=O)(=O)c4ccc(NCC5CCOCC5)c([N+](=O)[O-])c4)c(Oc4cnc5[nH]ccc5c4)c3)CC2)=C(c2ccc(Cl)cc2)C1 [Venetoclax] + CN(C)CCCOc1ccc(-c2ccc3ncc4c(c3c2)n(C2CCOCC2)c(=O)n4C)cn1 [AZD0156] (first compound max 1 µM, 7x7, partner max 1 µM)
output: 0.189

====

# Test system: SW756 (Cervical Carcinoma)
# assay notes: combination Emax (second highest fraction inhibited in the dose matrix, 72 h); higher = more inhibition; extreme values may be limits of the assay
So I've got a bunch of compounds here, and I need their combination Emax values.
Numbers only.

compound	combination Emax
Cn1cnc2c(F)c(Nc3ccc(Br)cc3Cl)c(C(=O)NOCCO)cc21 [Selumetinib] + CC(C)n1c(=O)n(C)c2cnc3cc(F)c(-c4ccc(OCCCN5CCCCC5)nc4)cc3c21 [AZD1390] (first compound max 10 µM, 7x7, partner max 0.3 µM)	0.229
CC1(C)CCC(CN2CCN(c3ccc(C(=O)NS(=O)(=O)c4ccc(NCC5CCOCC5)c([N+](=O)[O-])c4)c(Oc4cnc5[nH]ccc5c4)c3)CC2)=C(c2ccc(Cl)cc2)C1 [Venetoclax] + Cc1cc2ncnn2cc1Nc1ncc2c(n1)n(C1CCOCC1)c(=O)n2C [AZD7648] (first compound max 1 µM, 7x7, partner max 10 µM)	0.195
Cc1c2c(nn1C)CSCc1cc(n(C)n1)CSc1cc(c3ccccc3c1)OCCCc1c(C(=O)O)n(C)c3c-2c(Cl)ccc13 [AZD5991] + CC1(C)CCC(CN2CCN(c3ccc(C(=O)NS(=O)(=O)c4ccc(NCC5CCOCC5)c([N+](=O)[O-])c4)c(Oc4cnc5[nH]ccc5c4)c3)CC2)=C(c2ccc(Cl)cc2)C1 [Venetoclax] (first compound max 1 µM, 7x7, partner max 1 µM)	0.185

Consider the additional compound presented here.
input: Provide combination Emax, tested on SW756 (Cervical Carcinoma), for CCc1c2c(nc3ccc(O)cc13)-c1cc3c(c(=O)n1C2)COC(=O)[C@]3(O)CC [SN-38] + O=C(c1cc(Cc2n[nH]c(=O)c3ccccc23)ccc1F)N1CCN(C(=O)C2CC2)CC1 [Olaparib] (first compound max 0.3 µM, 7x7, partner max 10 µM) .
output: 0.766

====

# Tested on: J82 (Bladder Carcinoma)
# assay notes: Bliss excess, mean over the matrix (fraction); higher = more synergy
measured quantity: Bliss excess

Below, each entry is followed by its recorded Bliss excess result.
compound	assayed system	Bliss excess
CC1(C)CCC(CN2CCN(c3ccc(C(=O)NS(=O)(=O)c4ccc(NCC5CCOCC5)c([N+](=O)[O-])c4)c(Oc4cnc5[nH]ccc5c4)c3)CC2)=C(c2ccc(Cl)cc2)C1 [Venetoclax] + C[C@@H]1COCCN1C2=NC(=NC(=C2)C3(CC3)[S@](=N)(=O)C)C4=C5C=CNC5=NC=C4 [AZD6738] (first compound max 1 µM, 7x7, partner max 10 µM)	J82 (Bladder Carcinoma)	0.0106
CC1(C)CCC(CN2CCN(c3ccc(C(=O)NS(=O)(=O)c4ccc(NCC5CCOCC5)c([N+](=O)[O-])c4)c(Oc4cnc5[nH]ccc5c4)c3)CC2)=C(c2ccc(Cl)cc2)C1 [Venetoclax] + C[C@@H](Nc1cc(F)cc(F)c1)c1cc(C(=O)N(C)C)cc2c(=O)cc(N3CCOCC3)oc12 [AZD8186] (first compound max 1 µM, 7x7, partner max 3 µM)	J82 (Bladder Carcinoma)	-0.0213
CN(CCO)CC[C@H](CSc1ccccc1)Nc1ccc(S(=O)(=O)NC(=O)c2ccc(N3CCC([C@@H](O)c4ccccc4-c4ccc(Cl)cc4)CC3)cc2)cc1S(=O)(=O)C(F)(F)F [AZD4320] + CN(C)CCCOc1ccc(-c2ccc3ncc4c(c3c2)n(C2CCOCC2)c(=O)n4C)cn1 [AZD0156] (first compound max 1 µM, 7x7, partner max 1 µM)	J82 (Bladder Carcinoma)	-0.0464
CN(CCO)CC[C@H](CSc1ccccc1)Nc1ccc(S(=O)(=O)NC(=O)c2ccc(N3CCC([C@@H](O)c4ccccc4-c4ccc(Cl)cc4)CC3)cc2)cc1S(=O)(=O)C(F)(F)F [AZD4320] + C=CCn1c(=O)c2cnc(Nc3ccc(N4CCN(C)CC4)cc3)nc2n1-c1cccc(C(C)(C)O)n1 [AZD1775] (first compound max 1 µM, partner max 1 µM)	J82 (Bladder Carcinoma)	-0.107
CN(CCO)CC[C@H](CSc1ccccc1)Nc1ccc(S(=O)(=O)NC(=O)c2ccc(N3CCC([C@@H](O)c4ccccc4-c4ccc(Cl)cc4)CC3)cc2)cc1S(=O)(=O)C(F)(F)F [AZD4320] + C[C@@H](Nc1cc(F)cc(F)c1)c1cc(C(=O)N(C)C)cc2c(=O)cc(N3CCOCC3)oc12 [AZD8186] (first compound max 1 µM, 7x7, partner max 3 µM)	J82 (Bladder Carcinoma)	-0.0061

Consider the additional compound presented here.
input: Report Bliss excess, nothing else, for this compound: CCc1c2c(nc3ccc(O)cc13)-c1cc3c(c(=O)n1C2)COC(=O)[C@]3(O)CC [SN-38] + CN(C)CCCOc1ccc(-c2ccc3ncc4c(c3c2)n(C2CCOCC2)c(=O)n4C)cn1 [AZD0156] (first compound max 0.3 µM, 7x7, partner max 1 µM)
output: -0.0299

Source: the supplement of paper PMC11061612
